- testDescription: Intrinsic clearance in rat liver microsomes
- Assay type: ADME
- experimentalContext: read-out: CLH
measuredParameter: CLint scaled (mL/min/kg)

CCS(=O)(=O)c1ccc(COC[C@@H]2C[C@@H]2C2CCN(c3nc(C(C)C)no3)CC2)c(F)c1 ... 905

(I) COCc1cnc(N2CCC([C@H]3C[C@H]3COCc3ccc(S(C)(=O)=O)cc3F)CC2)nc1
(II) CCS(=O)(=O)c1ccc(OCC[C@@H]2C[C@@H]2C2CCN(c3nc(C(C)C)no3)CC2)c(F)c1
Please tell me which of the two, I or II , has the higher reported CLint scaled value. Write the label of whichever entry you select.
I
